All values here come from ChEMBL document CHEMBL1134760.

experiment notes: Clearance by iv administration in dogs at a dose of 1 mg/kg
measurement context: dog, in vivo
experimental endpoint: clearance (mL/min/kg)

>>> df
                                smiles_code  experimental_endpoint  result_number
0  N#Cc1ccc2cc1Oc1ccc3cccc(c3c1)N1CCN(CC1=O)Cc1cncn1C2              clearance            5.1

====

tested target: Protein farnesyltransferase (Rattus norvegicus, UniProt Q02293+Q04631)
experiment notes: In vitro ability to displace radiolabeled FTI from farnesyltransferase in cultured Ha-ras transformed RAT1 cells
pIC50: −log10 of the molar value.
experimental endpoint: pIC50

                                smiles_code                             tested_target  result_number
0  CC[C@H]1NCc2cncn2Cc2ccc(C#N)c(c2)Oc2ccc3cccc(c3c2)NC1=O  Protein farnesyltransferase (Rattus norvegicus, UniProt Q02293+Q04631)           6.39
1  N#Cc1ccc2cc1Oc1ccc3cccc(c3c1)NC(=O)[C@@H](Cc1ccccc1)N(Cc1ccccc1)Cc1cncn1C2  Protein farnesyltransferase (Rattus norvegicus, UniProt Q02293+Q04631)           6.24
2  N#Cc1ccc2cc1Oc1ccc3cccc(c3c1)NC(=O)[C@@H](Cc1cccnc1)NCc1cncn1C2  Protein farnesyltransferase (Rattus norvegicus, UniProt Q02293+Q04631)           5.88
3  N#Cc1ccc2cc1Oc1ccc3cccc(c3c1)NC(=O)[C@@H](Cc1ccccc1)NC(=O)Cc1cncn1C2  Protein farnesyltransferase (Rattus norvegicus, UniProt Q02293+Q04631)           6.51
